Test system: RPMI-8226
Conditions: RPMI-8226, Leukemia
Property label: Total growth inhibition (TGI)

Identify the measured Total growth inhibition (TGI) of C=C1CCC2C3(C)COC(c4cn(-c5ccccc5)nc4-c4cccc(Cl)c4)OC3CCC2(C)C1CC=C1C(=O)OCC1O (stereo not shown) [1d] for RPMI-8226.
> 100 µM

For C=C1CCC2C3(C)COC(c4cn(-c5ccccc5)nc4-c4cccc(Br)c4)OC3CCC2(C)C1CC=C1C(=O)OCC1O (stereo not shown) [1e] then?
> 100 µM

Then what about the compound C=C1CCC2C3(C)COC(c4cn(-c5ccccc5)nc4-c4cccc(F)c4)OC3CCC2(C)C1CC=C1C(=O)OCC1O (stereo not shown) [1c] ?
> 100 µM

Try this compound too: C=C1CCC2C3(C)COC(c4cn(-c5ccccc5)nc4-c4ccc(Br)cc4)OC3CCC2(C)C1CC=C1C(=O)OCC1O (stereo not shown) [1h]
> 100 µM

* * *

Assay read-out GI50; system under study: SR.
I only need the number, in nM, no unit after it.

Suppose we examine the compound C=C1CCC2C3(C)COC(c4cn(-c5ccccc5)nc4-c4ccc(OC)cc4)OC3CCC2(C)C1CC=C1C(=O)OCC1O (stereo not shown) [1j] ; what GI50 value has been reported?
1740

Try the compound C=C1CCC2C3(C)COC(c4cn(-c5ccccc5)nc4-c4cccc(Br)c4)OC3CCC2(C)C1CC=C1C(=O)OCC1O (stereo not shown) [1e]
1770

Repeat with C=C1CCC2C3(C)COC(c4cn(-c5ccccc5)nc4-c4ccc(F)cc4)OC3CCC2(C)C1CC=C1C(=O)OCC1O (stereo not shown) [1f]
1700

Field entry: C=C1CCC2C3(C)COC(c4cn(-c5ccccc5)nc4-c4ccc(C)cc4)OC3CCC2(C)C1CC=C1C(=O)OCC1O (stereo not shown) [1i]
2740

Same lookup for C=C1CCC2C3(C)COC(c4cn(-c5ccccc5)nc4-c4ccccc4)OC3CCC2(C)C1CC=C1C(=O)OCC1O (stereo not shown) [1a] , please.
3790

Now the same for C=C1CCC2C3(C)COC(c4cn(-c5ccccc5)nc4-c4cccc([N+](=O)[O-])c4)OC3CCC2(C)C1CC=C1C(=O)OCC1O (stereo not shown) [1b]
3460

What do you get for C=C1CCC2C3(C)COC(c4cn(-c5ccccc5)nc4-c4cccc(F)c4)OC3CCC2(C)C1CC=C1C(=O)OCC1O (stereo not shown) [1c] ?
2200

* * *

Test system: MDA-MB-231
Conditions: MDA-MB-231/ATCC, Breast
Property label: Total growth inhibition (TGI) (µM)
Lab book: enter the figure in µM, no units written.

Consider the compound shown here: C=C1CCC2C3(C)COC(c4cn(-c5ccccc5)nc4-c4ccc(Cl)cc4)OC3CCC2(C)C1CC=C1C(=O)OCC1O (stereo not shown) What is its recorded Total growth inhibition (TGI)?
4.6

And then C=C1CCC2C3(C)COC(c4cn(-c5ccccc5)nc4-c4cccc([N+](=O)[O-])c4)OC3CCC2(C)C1CC=C1C(=O)OCC1O (stereo not shown) , what is it?
3.44

Now try C=C1CCC2C3(C)COC(c4cn(-c5ccccc5)nc4-c4ccccc4)OC3CCC2(C)C1CC=C1C(=O)OCC1O (stereo not shown) .
3.25

Please answer likewise for C=C1CCC2C3(C)COC(c4cn(-c5ccccc5)nc4-c4cccc(Br)c4)OC3CCC2(C)C1CC=C1C(=O)OCC1O (stereo not shown)
3.23

What about C=C1CCC2C3(C)COC(c4cn(-c5ccccc5)nc4-c4ccc(C)cc4)OC3CCC2(C)C1CC=C1C(=O)OCC1O (stereo not shown) ?
3.28

And what about the compound C=C1CCC2C3(C)COC(c4cn(-c5ccccc5)nc4-c4ccc(Br)cc4)OC3CCC2(C)C1CC=C1C(=O)OCC1O (stereo not shown) ?
3.14

Same lookup for C=C1CCC2C3(C)COC(c4cn(-c5ccccc5)nc4-c4ccc(F)cc4)OC3CCC2(C)C1CC=C1C(=O)OCC1O (stereo not shown) , please.
3.28

* * *

System: U251
Conditions: U251, CNS
Property label: Total growth inhibition (TGI) (µM)
# number only, unit µM dropped from output

Find the recorded Total growth inhibition (TGI) belonging to C=C1CCC2C3(C)COC(c4cn(-c5ccccc5)nc4-c4ccc(Br)cc4)OC3CCC2(C)C1CC=C1C(=O)OCC1O (stereo not shown) and report it.
2.89

Another molecule to check: C=C1CCC2C3(C)COC(c4cn(-c5ccccc5)nc4-c4ccc(OC)cc4)OC3CCC2(C)C1CC=C1C(=O)OCC1O (stereo not shown)
3.1

Next molecule up: C=C1CCC2C3(C)COC(c4cn(-c5ccccc5)nc4-c4cccc(Br)c4)OC3CCC2(C)C1CC=C1C(=O)OCC1O (stereo not shown)
3.13

Entry C=C1CCC2C3(C)COC(c4cn(-c5ccccc5)nc4-c4cccc(Cl)c4)OC3CCC2(C)C1CC=C1C(=O)OCC1O (stereo not shown) please
3

Proceed to C=C1CCC2C3(C)COC(c4cn(-c5ccccc5)nc4-c4ccc(Cl)cc4)OC3CCC2(C)C1CC=C1C(=O)OCC1O (stereo not shown)
3.19

C=C1CCC2C3(C)COC(c4cn(-c5ccccc5)nc4-c4ccc(C)cc4)OC3CCC2(C)C1CC=C1C(=O)OCC1O (stereo not shown) ?
3.12

Also, C=C1CCC2C3(C)COC(c4cn(-c5ccccc5)nc4-c4ccccc4)OC3CCC2(C)C1CC=C1C(=O)OCC1O (stereo not shown) please.
3.71

* * *

Tested on: SF-295
Settings: SF-295, CNS
Property label: GI50
Please make sure the unit comes right after the number.

Which GI50 value belongs to C=C1CCC2C3(C)COC(c4cn(-c5ccccc5)nc4-c4cccc([N+](=O)[O-])c4)OC3CCC2(C)C1CC=C1C(=O)OCC1O (stereo not drawn) ?
1680 nM

Same thing, different molecule: C=C1CCC2C3(C)COC(c4cn(-c5ccccc5)nc4-c4ccc(OC)cc4)OC3CCC2(C)C1CC=C1C(=O)OCC1O (stereo not drawn)
1430 nM

Same lookup for C=C1CCC2C3(C)COC(c4cn(-c5ccccc5)nc4-c4cccc(F)c4)OC3CCC2(C)C1CC=C1C(=O)OCC1O (stereo not drawn) , please.
1520 nM

* * *

Test system: MDA-MB-435
Conditions: read-out: 50% lethal concentration (LC50); MDA-MB-435, Melanoma
Threshold-based label: CC50 under 7 µM gives T, CC50 not under 7 µM gives F.

Here's an entry: C=C1CCC2C3(C)COC(c4cn(-c5ccccc5)nc4-c4ccc(OC)cc4)OC3CCC2(C)C1CC=C1C(=O)OCC1O (stereo not shown) . Is its CC50 below 7 µM?
T

Next entry: C=C1CCC2C3(C)COC(c4cn(-c5ccccc5)nc4-c4ccccc4)OC3CCC2(C)C1CC=C1C(=O)OCC1O (stereo not shown)
F

What about C=C1CCC2C3(C)COC(c4cn(-c5ccccc5)nc4-c4cccc(F)c4)OC3CCC2(C)C1CC=C1C(=O)OCC1O (stereo not shown) ?
T

Next entry: C=C1CCC2C3(C)COC(c4cn(-c5ccccc5)nc4-c4cccc([N+](=O)[O-])c4)OC3CCC2(C)C1CC=C1C(=O)OCC1O (stereo not shown)
F

Subsequent entry: C=C1CCC2C3(C)COC(c4cn(-c5ccccc5)nc4-c4cccc(Br)c4)OC3CCC2(C)C1CC=C1C(=O)OCC1O (stereo not shown)
F

Queued: C=C1CCC2C3(C)COC(c4cn(-c5ccccc5)nc4-c4cccc(Cl)c4)OC3CCC2(C)C1CC=C1C(=O)OCC1O (stereo not shown)
T

C=C1CCC2C3(C)COC(c4cn(-c5ccccc5)nc4-c4ccc(F)cc4)OC3CCC2(C)C1CC=C1C(=O)OCC1O (stereo not shown) , same question.
T

// query: C=C1CCC2C3(C)COC(c4cn(-c5ccccc5)nc4-c4ccc(Br)cc4)OC3CCC2(C)C1CC=C1C(=O)OCC1O (stereo not shown)
T

Then this compound: C=C1CCC2C3(C)COC(c4cn(-c5ccccc5)nc4-c4ccc(Cl)cc4)OC3CCC2(C)C1CC=C1C(=O)OCC1O (stereo not shown)
T

* * *

Tested on: OVCAR-8
Settings: read-out: 50% lethal concentration (LC50); OVCAR-8, Ovarian
Property label: CC50 (µM)
Number in µM, nothing else.

Query CC50 on OVCAR-8 for C=C1CCC2C3(C)COC(c4cn(-c5ccccc5)nc4-c4ccc(OC)cc4)OC3CCC2(C)C1CC=C1C(=O)OCC1O (stereo not shown)
5.97

Another: C=C1CCC2C3(C)COC(c4cn(-c5ccccc5)nc4-c4cccc(F)c4)OC3CCC2(C)C1CC=C1C(=O)OCC1O (stereo not shown)
8.5

Likewise for C=C1CCC2C3(C)COC(c4cn(-c5ccccc5)nc4-c4ccc(Br)cc4)OC3CCC2(C)C1CC=C1C(=O)OCC1O (stereo not shown) ?
7.45

// next record C=C1CCC2C3(C)COC(c4cn(-c5ccccc5)nc4-c4ccc(C)cc4)OC3CCC2(C)C1CC=C1C(=O)OCC1O (stereo not shown)
7.37
